# credit: ChEMBL document CHEMBL1157539

The following compounds are shown together with reported Inhibition values.
# Test system: Plasmodium falciparum
# measurement.description: GSK_TCMDC: Inhibition of Plasmodium falciparum 3D7 in whole red blood cells, using parasite LDH activity as an index of growth. Test compounds present at 2uM
# Assay type: functional
# unit: % | format: bare number

INSERT INTO assay_data (compound, assay_result) VALUES
  ('CC(=O)Nc1ccc(CCNC(C)Cc2ccc(C(=O)Nc3ccc(CC(C)NCCc4cccc(Cl)c4)cc3)cc2)cc1.Cl (stereo unspecified)', 100);

[ask] Give its Inhibition value. Item: Cc1cc(Cl)c(S(=O)(=O)N2CCc3ccccc32)cc1OCC(=O)NC1CCCCC1
[reply] 100

[ask] Sample OC(CNc1ccnc(Nc2ccccc2)n1)c1ccc(C(F)(F)F)cc1 (stereo unspecified) — what was its Inhibition?
[reply] 100

[ask] Can you share its Inhibition? I mean this compound: CC(C)(CN1CCCC1)CN(Cc1ccc(-c2ccc(C(F)(F)F)cc2)cc1)C(=O)Cn1c(CCc2cccc(F)c2F)nc(=O)c2ccccc21.O=C(O)C(O)C(O)C(=O)O
[reply] 97

[ask] Tell me the measured Inhibition of O=C(CC1CCCC1)N(Cc1ccc(-c2ccc(CNC3Cc4ccccc4C3)cc2)cc1)CC1CCCCN1.O=C(O)C(F)(F)F (stereo unspecified) , please.
[reply] 88

[ask] # lookup: Inhibition of Cl.Nc1nc(N)c2c(ccc3c2cnn3S(=O)(=O)N2CCCC2)n1
[reply] 93

[ask] Form field: reported Inhibition of CN1C(C)(C)CC(NC(=O)c2ccc(-c3nc4cc(Cl)c(Cl)cc4[nH]3)cc2)CC1(C)C
[reply] 98

[ask] Entry under review: CCN(CCCN1CCCCC1)c1cc(C)nc(Nc2ccc(C)cc2)n1.O=C(O)C(F)(F)F . Reported Inhibition?
[reply] 100

[ask] May I ask what Inhibition has been recorded for O=C(O)C(F)(F)F.c1cc(CN2CCCCC2)cc(-c2csc(-c3nc4ccccc4[nH]3)c2)c1 ?
[reply] 90

[ask] Requested field: Inhibition. Item: CN1CCN(CCCN(Cc2cccc(-c3cccc(CNC4CCCC4)c3)c2)C(=O)CCC2CCCC2)CC1.O=C(O)C(F)(F)F
[reply] 100

[ask] # Inhibition lookup, item CCN(CC)CCNC(=O)c1ccc(NC(=O)c2cc3c(C)nn(-c4ccc(Cl)cc4)c3s2)cc1.Cl
[reply] 95

[ask] Request the reported Inhibition associated with COc1cc(NC(=O)Nc2cccc3ccccc23)c(OC)cc1Cl
[reply] 97

[ask] Quick one: Inhibition of Cl.N#Cc1ccc2c(c1)CCN(CCC1CCC(NC(=O)c3cc4cccc([N+](=O)[O-])c4[nH]3)CC1)C2 (stereo unspecified) ?
[reply] 100

[ask] # input compound: CC(C)CNCc1ccc(-c2ccccc2CN(C(=O)NCCc2ccccc2)C2CCN(Cc3ccccc3)CC2)cc1.O=C(O)C(F)(F)F ; wanted: its Inhibition
[reply] 98

[ask] Could you share which Inhibition value was measured for O=C(N[C@@H](Cc1ccccc1)C(=O)NCCN1CCCCC1)c1ccc(O)c(-c2cccc(C(F)(F)F)c2)c1 ?
[reply] 92

[ask] What does the data say about its Inhibition? Entry: O=C(Cn1c(CCc2cccc(F)c2F)cc(=O)c2ccccc21)N(Cc1ccc(-c2ccc(C(F)(F)F)cc2)cc1)C1CCN(CCN2CCOCC2)CC1.O=C(O)C(O)C(O)C(=O)O
[reply] 100
